system: K. pneumoniae NCTC418; conditions: MH broth pH 7.4, 16–20 h, 37 °C
Non-standard residues stand in square brackets, D forms with d. Residues, ends and D or L forms follow the SMILES beside them.
valueKind: MIC K. pneumoniae NCTC418

[
  {
    "compound": "CC[C@H](C)[C@H](NC(=O)[C@@H](NC(=O)[C@@H](NC(=O)[C@@H](CCCCN)NC(=O)[C@@H](NC(=O)[C@@H](NC(=O)[C@@H](CCCCN)NC(=O)[C@@H](NC(=O)[C@@H](NC(=O)[C@@H](CCCCN)NC(=O)[C@H](N)CCCCN)[C@@H](C)CC)[C@@H](C)CC)[C@@H](C)CC)[C@@H](C)CC)[C@@H](C)CC)[C@@H](C)CC)C(N)=O [HP35, kkIIkIIkIII] (H-[dK][dK]II[dK]II[dK]III-NH2)",
    "result": ">64 µg/mL"
  },
  {
    "compound": "CC(C)C[C@H](NC(=O)[C@H](CC(C)C)NC(=O)[C@H](CC(C)C)NC(=O)[C@H](CCCCN)NC(=O)[C@H](CC(C)C)NC(=O)[C@@H](CC(C)C)NC(=O)[C@H](CCCCN)NC(=O)[C@@H](CC(C)C)NC(=O)[C@@H](CC(C)C)NC(=O)[C@@H](CCCCN)NC(=O)[C@@H](N)CCCCN)C(N)=O",
    "result": "8 to 16 µg/mL"
  },
  {
    "compound": "CC(C)C[C@@H](NC(=O)[C@@H](CC(C)C)NC(=O)[C@@H](CC(C)C)NC(=O)[C@@H](CCCCN)NC(=O)[C@@H](CC(C)C)NC(=O)[C@@H](CC(C)C)NC(=O)[C@@H](CCCCN)NC(=O)[C@@H](CC(C)C)NC(=O)[C@@H](CC(C)C)NC(=O)[C@@H](CCCCN)NC(=O)[C@H](N)CCCCN)C(N)=O",
    "result": "4 µg/mL"
  },
  {
    "compound": "CC(C)C[C@H](NC(=O)[C@H](CC(C)C)NC(=O)[C@H](CC(C)C)NC(=O)[C@H](CCCCN)NC(=O)[C@@H](CC(C)C)NC(=O)[C@@H](CC(C)C)NC(=O)[C@@H](CCCCN)NC(=O)[C@H](CC(C)C)NC(=O)[C@H](CC(C)C)NC(=O)[C@H](CCCCN)NC(=O)[C@@H](N)CCCCN)C(N)=O",
    "result": ">64 µg/mL"
  }
]

QUERY: What does the data say about its MIC K. pneumoniae NCTC418? Entry: CC(C)C[C@H](NC(=O)[C@H](CC(C)C)NC(=O)[C@@H](CCCCN)NC(=O)[C@H](CC(C)C)NC(=O)[C@H](CC(C)C)NC(=O)[C@@H](CCCCN)NC(=O)[C@H](N)CCCCN)C(=O)N[C@@H](CCCCN)C(=O)N[C@@H](CC(C)C)C(=O)N[C@H](CC(C)C)C(=O)N[C@H](CC(C)C)C(N)=O
RESULT: >64 µg/mL

Cited source: paper PMC10258794
